Test system: Escherichia coli K-12 BW25113
assay: relative growth (OD600 normalised to plate interquartile mean) (fraction); higher = less growth inhibition, active = 0.2 or less
settings: 50 µM; LB; incubation time: overnight (16-24 h)
Out of some 39,000 compounds screened, about 220 (0.56%) showed activity. Many of the other results were omitted from the sample, so actives are more common in it than they were.
Short version: relative growth at least 1 is Condition met, less is Condition not met.

Here's what some known entries look like.
compoundStructureString | target | qualitativeLabel
C[C@@H]1CN([C@@H](C)CO)C(=O)c2cc(NC(=O)Nc3ccc(C(F)(F)F)cc3)ccc2O[C@@H]1CN(C)S(=O)(=O)c1ccc(Cl)cc1 | Escherichia coli K-12 BW25113 | Condition met
C[C@@H]1CN([C@H](C)CO)C(=O)c2cc(NS(=O)(=O)c3ccccc3)ccc2O[C@@H](C)CCCCO[C@H]1CN(C)Cc1ccc(C(F)(F)F)cc1 | Escherichia coli K-12 BW25113 | Condition met
CC(C)(O/N=C(\C(=O)N[C@@H]1C(=O)N2C(C(=O)O)=C(C[n+]3ccccc3)CS[C@H]12)c1csc(N)n1)C(=O)O | Escherichia coli K-12 BW25113 | Condition not met
CCCN(C)C[C@@H]1OCCCC[C@@H](C)Oc2ccc(NC(=O)Nc3ccc4c(c3)OCO4)cc2C(=O)N([C@H](C)CO)C[C@H]1C | Escherichia coli K-12 BW25113 | Condition met

Enquiry: Entry NC(=O)c1cc[n+](CC2=C(C(=O)O)N3C(=O)[C@@H](NC(=O)Cc4cccs4)[C@H]3SC2)cc1 : is its relative growth no less than 1?
Return: Condition met

Enquiry: Now try CC(C)(O/N=C(\C(=O)N[C@@H]1C(=O)N2C(C(=O)O)=C(C[N+]3(CCNC(=O)c4ccc(O)c(O)c4Cl)CCCC3)CS[C@H]12)c1csc(N)n1)C(=O)O .
Return: Condition not met

----------
Tested on: Escherichia coli K-12 BW25113
assay: relative growth (OD600 normalised to plate interquartile mean) (fraction); higher = less growth inhibition, active = 0.2 or less
settings: 50 µM; LB; incubation time: overnight (16-24 h)
About 220 (0.56%) of roughly 39,000 compounds showed activity. For the sample, actives were picked, then their nearest neighbours and some compounds at random.
Can you answer with just one of these options? active, inactive

Here's what some known entries look like.
compound | qualitativeLabel
CC(=O)NC[C@H]1CN(c2ccc(N3CCN(C(=O)CO)CC3)c(F)c2)C(=O)O1 | inactive
C[C@H](NC(=O)C[C@H]1C=C[C@@H](NC(=O)CN2CCOCC2)[C@H](CO)O1)c1ccccc1 | inactive
C[C@H]1CN([C@@H](C)CO)C(=O)Cc2cc(NS(=O)(=O)c3ccc(Cl)cc3)ccc2O[C@H]1CN(C)Cc1ccc(-c2ccccc2)cc1 | inactive
O=C(O)c1cn(C2CC2)c2cc(N3CCC(O)(COc4ccc(N5C[C@H](CO)OC5=O)cc4F)CC3)c(F)cc2c1=O | active

Enquiry: Which result was noted for this compound in the test: CC(=O)NCC1CN(c2ccc(N3CCOCC3)c(F)c2)C(=O)O1 (stereo not given)
Return: inactive

----------
Listing of entries alongside the reported relative growth.
System: Escherichia coli K-12 BW25113;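 also: Wild-type cells incubated without shaking, value is the mean of two biological replicates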
assay: relative growth (OD600 normalised to plate interquartile mean) (fraction); higher = less growth inhibition, active = 0.2 or less
settings: 50 µM; LB; incubation time: overnight (16-24 h)
In all, about 39,000 compounds went through this assay and about 220 (0.56%) showed activity. Only a selection was taken, and actives are over-represented in it overall.
// response body must contain only the number

Consider the reported relative growth for these compounds:
compound | relative growth
CCOC(=O)CCC(=O)O[C@H]1[C@H](O[C@@H]2[C@@H](C)[C@H](O[C@H]3C[C@@](C)(OC)[C@@H](O)[C@H](C)O3)[C@@H](C)C(=O)O[C@H](CC)[C@@](C)(O)[C@H](O)[C@@H](C)C(=O)[C@H](C)C[C@@]2(C)O)O[C@H](C)C[C@@H]1N(C)C | 0.0544
Cc1ccc(S(=O)(=O)Nc2ccc3c(c2)C(=O)N([C@@H](C)CO)C[C@@H](C)[C@H](CN(C)C(=O)Cc2ccccc2)OCCCC[C@@H](C)O3)cc1 | 1.01
O=C(C[C@H]1CC[C@@H](NC(=O)c2cccnc2)[C@H](CO)O1)NCCN1CCCCC1 | 1
CCOC(=O)CCC(=O)OC1C(OC2C(C)C(OC3CC(C)(OC)C(O)C(C)O3)C(C)C(=O)OC(CC)C(C)(O)C(O)C(C)C(=O)C(C)CC2(C)O)OC(C)CC1N(C)C (stereo not given) | 0.709

Enquiry: Tell me the measured relative growth of COc1ccc(C#Cc2ccc3c(c2)O[C@@H](CN(C)C(=O)CN2CCOCC2)[C@@H](C)CN([C@H](C)CO)S3(=O)=O)cc1 , please.
Return: 0.997

Enquiry: Now try O=C(C[C@H]1C[C@H]2c3cc(NC(=O)Nc4ccc(C(F)(F)F)cc4)ccc3O[C@H]2[C@H](CO)O1)NCc1ccc(Cl)cc1 .
Return: 0.973
